# Tested on: HS 578T breast
# assayNotes: NCI-60 one-dose screen, 48 h (100 = growth as untreated, 0 = no growth, -100 = all killed)
# statedConditions: 10 µM unless noted
About 83,000 compounds went through this panel and 20% of them were active in at least one assay; those are over-represented in the sample as a whole. Calls of active or inactive are those of the source. How the source made its calls: active means growth percent below 10; inactive means the rest.
growth: recorded values
resultType: growth

# compound, valueMeasured
rows = [
    ("C/C(=N\\O)c1ccc(NC(=O)CSc2nnc(-c3cc(-c4ccc(S(C)(=O)=O)cc4)nc4ccccc34)n2-c2ccccc2)cc1", "73.4% (inactive)"),
    ("COc1ccc2c(c1)CCc1[nH]nc(-c3cc(OC)c(OC)c(OC)c3)c1-2", "23% (inactive)"),
    ("O=C(C1CCCCC1)[C@@H]1[C@]2(C(=O)NC3CCCCC32)[C@@H]2CCCN2[C@@]12C(=O)NC1CCC(Cl)CC12 (some centres not stated)", "-43.6% [100 µM] (active)"),
    ("CC1=C(CCC(C)NCc2ccc(OCCCN3CCCCC3)cc2)C(C)(C)CCC1 (configuration not stated)", "-52.9% (active)"),
    ("COC(=O)c1ccc(NC(=O)Nc2ccc(C(=O)OC)cc2)cc1", "92.8% (inactive)"),
    ("COc1cc(Cl)c(C)cc1NC(=O)c1cc2ccccc2cc1O", "23.8% (inactive)"),
    ("COc1ccc(/C=C/c2ccc3ccccc3n2)c(OC)c1", "85.5% (inactive)"),
    ("Cc1ccc(/C=C/C(=O)c2cccc(OCCCOc3cccc(C(=O)/C=C/c4ccc(C)cc4)c3)c2)cc1", "86.1% (inactive)"),
    ("CCN1C(=O)N(CC)C2C1NC(=S)N2/N=C/c1ccc(C(F)(F)F)cc1 (configuration not stated)", "66.2% (inactive)"),
    ("O=S(=O)(NCCNc1nccc(-c2c(-c3cccc(O)c3)nc3occn23)n1)c1ccc(Br)cc1", "21.8% (inactive)"),
    ("O=C(NNC(=O)c1nc2cc(F)ccc2n2cccc12)c1cnccn1", "67.8% (inactive)"),
    ("COc1ccc(Cn2cc3c(c2-c2ccccc2)CCc2cnoc2-3)cc1", "9.15% (active)"),
    ("COc1cccc(C(=O)NNc2nc(Cl)nc(Cl)n2)c1", "95.3% (inactive)"),
    ("O=C1/C(=C/c2ccc(F)cc2)CN(C(=O)C(Cl)Cl)C/C1=C\\c1ccc(F)cc1", "6.3% (active)"),
    ("O=C(CN1CCCCCC1)Nc1nc2ccc(NCc3ccc(Cl)cc3)cc2s1", "98% (inactive)"),
    ("C[n+]1ccc(CCc2c[nH]c3ccccc23)cc1", "104% (inactive)"),
    ("O=C(Nc1cnc(Nc2ccc(N3CCOCC3)nc2)nc1Oc1ccc(C(F)(F)F)cc1)c1ccncc1", "81.6% (inactive)"),
    ("O=C1/C(=C/c2ccccn2)NC(=S)N1c1ccccc1Cl", "72.5% (inactive)"),
    ("Cc1cccc2c1C[C@@]1(C2=O)C(c2ccc(C(C)(C)C)cc2)=NOS1=O (some centres not stated)", "87.2% (inactive)"),
    ("COc1cc(/C=N/Nc2ccc(Br)cc2)cc(OC)c1OC", "80% (inactive)"),
    ("COC(=O)c1nc(-c2ccccc2)oc1S(=O)(=O)NCC(c1ccc(Cl)cc1)N1CCOCC1 (configuration not stated)", "85.8% (inactive)"),
    ("COc1ccc(C(=O)N2c3ccccc3Sc3ccccc32)c(C(F)(F)F)c1", "24.3% (inactive)"),
]
